Assay: fluorescence interference artefacts, compound only, dose response, artefact control for cardiac thin filament activator project, biochemical, no RTF in test wells (AID 504697);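 further: emission near 535 nm under roughly 485 nm excitation as for IANBD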
Details: artifact counterscreen
Calls of active or inactive are those of the source.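 How the source made its calls: active means EC50 at or below 10 µM; inactive means EC50 above 10 µM.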
Labels: true (1) for active, false (0) for inactive

COMPOUND: O=c1[nH]c(=O)n(Cc2ccc(F)cc2)c(O)c1/C=N/Nc1ccccc1
CATEGORY: false (0)
--
COMPOUND: O=C(CN1CCN(c2ccccc2F)CC1)Nc1cccnc1Cl
CATEGORY: false (0)
--
COMPOUND: O=[N+]([O-])c1ccc(N2CCCC2)c2ncccc12
CATEGORY: false (0)
--
COMPOUND: C/C(=N\N1CCCCC1c1cccnc1)c1c(O)n(C2CCCCC2)c(=S)[nH]c1=O (stereo not drawn)
CATEGORY: false (0)
--
COMPOUND: CN1C(=O)/C(=C/c2ccc(N3CCCCCC3)o2)C(=O)NC1=S
CATEGORY: true (1)
--
COMPOUND: COc1ccc(OC)c(-n2c(O)c(C=NCCN3CCNCC3)c(=O)[nH]c2=S)c1
CATEGORY: false (0)
--
COMPOUND: Cc1ccc(-n2c(O)c(/C=C/C=Nc3ccccc3)c(=O)[nH]c2=O)cc1
CATEGORY: false (0)
--
COMPOUND: CCC1(C)OC(c2ccccc2)=C/C(=C/C=C2C(=O)NC(=O)NC2=O)O1 (stereo not drawn)
CATEGORY: true (1)
